Please provide measured solubility at 24 h for the entries that follow.
- Test: Solubility at 37° C. in buffers and biorelevant media, XRPD of residual solid
- Assay type: physicochemical
- Condition Info: thermodynamic from solid; FeSSIF-v1, pH 5.0, 37° C., 24 h
# answer = value followed by unit

// returns reported solubility at 24 h for input CCOc1cc(C(=O)N(C)Cc2cnc(CO)c3cn[nH]c23)ccc1-c1cc(F)cc(F)c1.Cl [HCl salt Pattern A]
151 µg/mL

What about this compound? CCOc1cc(C(=O)N(C)Cc2cnc(CO)c3cn[nH]c23)ccc1-c1cc(F)cc(F)c1 [Free form Pattern A]
168 µg/mL

What about this compound? CCOc1cc(C(=O)N(C)Cc2cnc(CO)c3cn[nH]c23)ccc1-c1cc(F)cc(F)c1.O=P(O)(O)O [Phosphate salt Pattern A]
159 µg/mL

What about this compound? CCOc1cc(C(=O)N(C)Cc2cnc(CO)c3cn[nH]c23)ccc1-c1cc(F)cc(F)c1.[Na] [Sodium salt Pattern A]
149 µg/mL

---

Please provide measured solubility at 24 h for the entries that follow.
- Test: Solubility at 37° C. in buffers and biorelevant media, XRPD of residual solid
- Type: physicochemical
- Condition Info: aqueous with cosolvent or surfactant or cyclodextrin, thermodynamic from solid; 2% HPMC + 1% Pluronic F68 in pH 4.5 acetate buffer (50 mM), 37° C., 24 h
# answer = value followed by unit

// returns reported solubility at 24 h for input CCOc1cc(C(=O)N(C)Cc2cnc(CO)c3cn[nH]c23)ccc1-c1cc(F)cc(F)c1.Cl [HCl salt Pattern A]
26.7 µg/mL

What about this compound? CCOc1cc(C(=O)N(C)Cc2cnc(CO)c3cn[nH]c23)ccc1-c1cc(F)cc(F)c1.O=P(O)(O)O [Phosphate salt Pattern A]
17.9 µg/mL

What about this compound? CCOc1cc(C(=O)N(C)Cc2cnc(CO)c3cn[nH]c23)ccc1-c1cc(F)cc(F)c1.[Na] [Sodium salt Pattern A]
260 µg/mL

What about this compound? CCOc1cc(C(=O)N(C)Cc2cnc(CO)c3cn[nH]c23)ccc1-c1cc(F)cc(F)c1 [Free form Pattern A]
34.3 µg/mL

---

- Test: Solubility at 37° C. in buffers and biorelevant media, XRPD of residual solid
- Type: physicochemical
- Condition Info: FaSSIF-v1, pH 6.5, 37° C., 24 h
Property Label: pH of supernatant at 24 h

CCOc1cc(C(=O)N(C)Cc2cnc(CO)c3cn[nH]c23)ccc1-c1cc(F)cc(F)c1.Cl [HCl salt Pattern A] | (6.3)
CCOc1cc(C(=O)N(C)Cc2cnc(CO)c3cn[nH]c23)ccc1-c1cc(F)cc(F)c1.O=P(O)(O)O [Phosphate salt Pattern A] | (6.2)
CCOc1cc(C(=O)N(C)Cc2cnc(CO)c3cn[nH]c23)ccc1-c1cc(F)cc(F)c1 [Free form Pattern A] | (6.5)
CCOc1cc(C(=O)N(C)Cc2cnc(CO)c3cn[nH]c23)ccc1-c1cc(F)cc(F)c1.[Na] [Sodium salt Pattern A] | (6.7)

---

- Test: Hygroscopicity by dynamic vapor sorption (DVS) at 25° C.
- Type: physicochemical
- Condition Info: DVS 25° C., 80% RH, 2nd desorption
Property Label: Desorp. (%)
# answer = value followed by unit

// returns reported Desorp. (%) for input CCOc1cc(C(=O)N(C)Cc2cnc(CO)c3cn[nH]c23)ccc1-c1cc(F)cc(F)c1 [Free form Pattern A]
4.15%

What about this compound? CCOc1cc(C(=O)N(C)Cc2cnc(CO)c3cn[nH]c23)ccc1-c1cc(F)cc(F)c1.O=P(O)(O)O [Phosphate salt Pattern A]
0.48%

What about this compound? CCOc1cc(C(=O)N(C)Cc2cnc(CO)c3cn[nH]c23)ccc1-c1cc(F)cc(F)c1.[Na] [Sodium salt Pattern A]
3.05%

What about this compound? CCOc1cc(C(=O)N(C)Cc2cnc(CO)c3cn[nH]c23)ccc1-c1cc(F)cc(F)c1.Cl [HCl salt Pattern A]
1.07%

---

Please provide measured solubility at 2 h for the entries that follow.
- Test: Solubility at 37° C. in buffers and biorelevant media, XRPD of residual solid
- Assay type: physicochemical
- Condition Info: thermodynamic from solid; Water, 37° C., 2 h
Value expressed in µg/mL; do not type the unit.

// returns reported solubility at 2 h for input CCOc1cc(C(=O)N(C)Cc2cnc(CO)c3cn[nH]c23)ccc1-c1cc(F)cc(F)c1.[Na] [Sodium salt Pattern A]
7.7

What about this molecule? CCOc1cc(C(=O)N(C)Cc2cnc(CO)c3cn[nH]c23)ccc1-c1cc(F)cc(F)c1 [Free form Pattern A]
5.6

What about this molecule? CCOc1cc(C(=O)N(C)Cc2cnc(CO)c3cn[nH]c23)ccc1-c1cc(F)cc(F)c1.O=P(O)(O)O [Phosphate salt Pattern A]
384

What about this molecule? CCOc1cc(C(=O)N(C)Cc2cnc(CO)c3cn[nH]c23)ccc1-c1cc(F)cc(F)c1.Cl [HCl salt Pattern A]
568

---

Please provide measured Sorp. (%) for the entries that follow.
- Test: Hygroscopicity by dynamic vapor sorption (DVS) at 25° C.
- Assay type: physicochemical
- Condition Info: DVS 25° C., 60% RH, 1st sorption
Value expressed in %; do not type the unit.

// returns reported Sorp. (%) for input CCOc1cc(C(=O)N(C)Cc2cnc(CO)c3cn[nH]c23)ccc1-c1cc(F)cc(F)c1.O=P(O)(O)O [Phosphate salt Pattern A]
0.32

What about this molecule? CCOc1cc(C(=O)N(C)Cc2cnc(CO)c3cn[nH]c23)ccc1-c1cc(F)cc(F)c1 [Free form Pattern A]
3.94

What about this molecule? CCOc1cc(C(=O)N(C)Cc2cnc(CO)c3cn[nH]c23)ccc1-c1cc(F)cc(F)c1.Cl [HCl salt Pattern A]
0.85

What about this molecule? CCOc1cc(C(=O)N(C)Cc2cnc(CO)c3cn[nH]c23)ccc1-c1cc(F)cc(F)c1.[Na] [Sodium salt Pattern A]
0.94

---

- Test: Bulk stability (solid state, 1 week; HPLC, XRPD, IC, color)
- Assay type: physicochemical
- Design: key: A: no change of color; B: slight discoloration; C: medium discoloration; D: strong discoloration
- Condition Info: Solid state, 25° C./92.5% RH, open
Property Label: CL (color)

CCOc1cc(C(=O)N(C)Cc2cnc(CO)c3cn[nH]c23)ccc1-c1cc(F)cc(F)c1.[Na] [Sodium salt Pattern A] | A
CCOc1cc(C(=O)N(C)Cc2cnc(CO)c3cn[nH]c23)ccc1-c1cc(F)cc(F)c1.O=P(O)(O)O [Phosphate salt Pattern A] | A
CCOc1cc(C(=O)N(C)Cc2cnc(CO)c3cn[nH]c23)ccc1-c1cc(F)cc(F)c1.Cl [HCl salt Pattern A] | A
CCOc1cc(C(=O)N(C)Cc2cnc(CO)c3cn[nH]c23)ccc1-c1cc(F)cc(F)c1 [Free form Pattern A] | A

---

- Test: Solubility at 37° C. in buffers and biorelevant media, XRPD of residual solid
- Format: physicochemical
- Condition Info: FaSSGF, pH 1.6, 37° C., 24 h
Property Label: pH of supernatant at 24 h

CCOc1cc(C(=O)N(C)Cc2cnc(CO)c3cn[nH]c23)ccc1-c1cc(F)cc(F)c1.[Na] [Sodium salt Pattern A] | (1.8)
CCOc1cc(C(=O)N(C)Cc2cnc(CO)c3cn[nH]c23)ccc1-c1cc(F)cc(F)c1.O=P(O)(O)O [Phosphate salt Pattern A] | (1.6)
CCOc1cc(C(=O)N(C)Cc2cnc(CO)c3cn[nH]c23)ccc1-c1cc(F)cc(F)c1.Cl [HCl salt Pattern A] | (1.5)
CCOc1cc(C(=O)N(C)Cc2cnc(CO)c3cn[nH]c23)ccc1-c1cc(F)cc(F)c1 [Free form Pattern A] | (1.6)

---

Please provide measured Desorp. (%) for the entries that follow.
- Test: Hygroscopicity by dynamic vapor sorption (DVS) at 25° C.
- Format: physicochemical
- Condition Info: DVS 25° C., 50% RH, 2nd desorption
- Method: Dynamic vapor sorption (DVS) was performed on an Intrinsic, Advantage or Adventure with an oven temperature of 25° C. using water as a solvent. The sample mass was about 5-10 mg using the following method: • Cycle: 40-0-95-0-40% RH • Stage Step: 10% • Equilibrium: 0.002 dm/dt (%/min) • Minimum dm/dt stability duration: 60 min • Maximum dm/dt stage time: 360 min. Hygroscopicity of free form Pattern B was evaluated by dynamic vapor sorption (DVS) test at 25° C. […]
Value expressed in %; do not type the unit.

// returns reported Desorp. (%) for input CCOc1cc(C(=O)N(C)Cc2cnc(CO)c3cn[nH]c23)ccc1-c1cc(F)cc(F)c1.[Na] [Sodium salt Pattern A]
1.69

What about this molecule? CCOc1cc(C(=O)N(C)Cc2cnc(CO)c3cn[nH]c23)ccc1-c1cc(F)cc(F)c1.O=P(O)(O)O [Phosphate salt Pattern A]
0.29

What about this molecule? CCOc1cc(C(=O)N(C)Cc2cnc(CO)c3cn[nH]c23)ccc1-c1cc(F)cc(F)c1.Cl [HCl salt Pattern A]
0.54

What about this molecule? CCOc1cc(C(=O)N(C)Cc2cnc(CO)c3cn[nH]c23)ccc1-c1cc(F)cc(F)c1 [Free form Pattern A]
3.92
